Where do the numbers come from? From paper PMC7156458.

target: Aβ42 (Homo sapiens, UniProt P05067); test: Th-T (thioflavin-T) assay of Aβ42 aggregation; format: biochemical; settings: time-course reading M114; Supplementary Fig. 47 source data
Sequence (P05067 672-713): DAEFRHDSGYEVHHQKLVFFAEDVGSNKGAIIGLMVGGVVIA
property: Th-T fluorescence, mean of three wells
Give the figure only, with no unit attached.

Exercise: Requested read-out: Th-T fluorescence, mean of three wells. Entry: C=C1CC[C@H]2[C@]3(C)C[C@@H](C=C(C)C)O[C@H]3CC[C@]2(C)[C@@H]1Cc1c(O)c(C)c(C)oc1=O [Compound 5, subglutinol A]
Key: 2.674

Exercise: Please answer likewise for C=C1CCC2C(C)(CCC=C(C)C)C(O)CCC2(C)C1Cc1c(O)c(C)c(C)oc1=O (stereo not drawn) [Compound 4]
Key: 2.781

Exercise: Param item: C=C1CC[C@@H]2[C@](C)(CC[C@H]3O[C@H](C=C(C)C)C[C@@]23C)[C@@H]1Cc1c(O)c(C)c(C)oc1=O [Compound 10, higginsianin A]
Key: 3.0544

Exercise: // repeat for CC(C)=CCC/C(C)=C/CC/C(C)=C/CC/C(C)=C/Cc1c(O)c(C)c(C)oc1=O [Compound 2] and report
Key: 2.9516

Exercise: Query C=C1CC[C@@H]2[C@](C)(CC[C@H]3O[C@H](C=C(C)C)C[C@@]23C)[C@@H]1Cc1c(OC)oc(CO)c(C)c1=O [Compound 20] next
Key: 4.212

Exercise: Okay, and C=C1CC[C@H]2[C@]3(C)C[C@@H](C=C(C)C)O[C@H]3CC[C@]2(C)[C@@H]1Cc1c(OC)oc(CO)c(C)c1=O [Compound 17] ?
Key: 3.674

* * *

target: UniProtKB P05067; test: Th-T (thioflavin-T) assay of Aβ42 aggregation; type: biochemical; conditions: column suffix _50; reading M2
property: Th-T assay signal, mean of three wells (Fig. 7a)
Respond numerically, and do not add a unit to the figure.

Exercise: Query: Th-T assay signal, mean of three wells (Fig. 7a); subject: `C=C1CC[C@@H]2[C@](C)(CC[C@H]3O[C@H](C=C(C)C)C[C@@]23C)[C@@H]1Cc1c(OC)oc(CO)c(C)c1=O`
Key: 0.1991

Exercise: Try the compound C=C1CCC2C(C)(CCC=C(C)C)C(O)CCC2(C)C1Cc1c(OC)oc(C)c(C(=O)OC)c1=O (centres unmarked)
Key: 0.462

Exercise: What about C=C1CCC2C(C)(CCC=C(C)C)C(O)CCC2(C)C1Cc1c(OC)oc(CO)c(C(=O)OC)c1=O (centres unmarked) ?
Key: 0.3694

Exercise: Further, for C=C1CCC2C(C)(CCC=C(C)C)C(O)CCC2(C)C1Cc1c(OC)oc(CO)c(C)c1=O (centres unmarked) ?
Key: 1.765

Exercise: Entry `C=C1CC[C@@H]2[C@](C)(CC[C@H]3O[C@H](C=C(C)C)C[C@@]23C)[C@@H]1Cc1c(OC)oc(CO)c(C(=O)OC)c1=O` please
Key: 0.219

* * *

experiment: cytotoxicity in Drosophila DL1 cells; format: cell-based; settings: Drosophila, DL1 cells, 10 µM, replicate 2, relative to DMSO 1%; read-out: % viability, viability 2
property: viability at 10 µM (%)
Kindly provide the numeric value in % only, without the unit symbol.

Exercise: Sample C=C1CCC2C(C)(CCC=C(C)C)C(O)CCC2(C)C1Cc1c(OC)oc(C)c(C)c1=O (stereo not shown) — what was its viability at 10 µM?
Key: 22.2

* * *

molecular target: Aβ42 (Homo sapiens); experiment: Th-T (thioflavin-T) assay of Aβ42 aggregation; format: biochemical; conditions: time-course reading M104; Supplementary Fig. 47 source data
property: Th-T fluorescence, mean of three wells

Exercise: Aβ42 (Homo sapiens) / Th-T fluorescence, mean of three wells / C=C1CCC2C3(C)CC(C=C(C)C)OC3CCC2(C)C1Cc1c(OC)oc(C)c(C)c1=O (stereo not drawn) : value?
Key: 3.914

Exercise: Now give it for C=C1CCC2C(C)(CCC=C(C)C)C(O)CCC2(C)C1Cc1c(OC)oc(C)c(C)c1=O (stereo not drawn) [Compound 15, viridoxin A hydrolysate] too.
Key: 3.321

Exercise: And for C=C1CCC2C(C)(CCC=C(C)C)C(=O)CCC2(C)C1Cc1c(O)c(C)c(C)oc1=O (stereo not drawn) ?
Key: 2.206

* * *

target: UniProt:P05067; assay: Th-T (thioflavin-T) assay of Aβ42 aggregation; type: biochemical; details: column suffix _50; reading M90
I'd be grateful if you could share measured Fig. 7a Th-T reading, mean of three wells for these entries.
A bare number is all that is needed in reply.

Exercise: Find the recorded Fig. 7a Th-T reading, mean of three wells belonging to C=C1CCC2C(C)(CCC=C(C)C)C(O)CCC2(C)C1Cc1c(OC)oc(C)c(C(=O)OC)c1=O (centres unmarked) and report it.
Key: 1.8142

Exercise: Field entry: C=C1CCC2C(C)(CCC=C(C)C)C(O)CCC2(C)C1Cc1c(OC)oc(CO)c(C(=O)OC)c1=O (centres unmarked)
Key: 0.4735

Exercise: Request: C=C1CCC2C(C)(CCC=C(C)C)C(O)CCC2(C)C1Cc1c(OC)oc(CO)c(C)c1=O (centres unmarked)
Key: 1.401

Exercise: Same lookup for `C=C1CC[C@@H]2[C@](C)(CC[C@H]3O[C@H](C=C(C)C)C[C@@]23C)[C@@H]1Cc1c(OC)oc(CO)c(C(=O)OC)c1=O` , please.
Key: 0.4233

Exercise: Now this one: `C=C1CC[C@@H]2[C@](C)(CC[C@H]3O[C@H](C=C(C)C)C[C@@]23C)[C@@H]1Cc1c(OC)oc(CO)c(C)c1=O`
Key: 2.096

* * *

target: UniProt:P05067; test: Th-T (thioflavin-T) assay of Aβ42 aggregation; type: biochemical; details: reading M113; compound at 10 (head suffix _10)
Label key: Criterion met means Th-T fluorescence, mean of three wells (Fig. 7a) under 3; Criterion not met means Th-T fluorescence, mean of three wells (Fig. 7a) of 3 or more.

Exercise: Find out if reported Th-T fluorescence, mean of three wells (Fig. 7a) for `C=C1CC[C@@H]2[C@](C)(CC[C@H]3O[C@H](C=C(C)C)C[C@@]23C)[C@@H]1Cc1c(OC)oc(CO)c(C(=O)OC)c1=O` is less than 3
Key: Criterion met

Exercise: What about this molecule? `C=C1CC[C@@H]2[C@](C)(CC[C@H]3O[C@H](C=C(C)C)C[C@@]23C)[C@@H]1Cc1c(OC)oc(CO)c(C)c1=O`
Key: Criterion not met

Exercise: Consider next the molecule C=C1CCC2C(C)(CCC=C(C)C)C(O)CCC2(C)C1Cc1c(OC)oc(CO)c(C(=O)OC)c1=O (centres unmarked) in the same way.
Key: Criterion met

Exercise: Next entry: C=C1CCC2C(C)(CCC=C(C)C)C(O)CCC2(C)C1Cc1c(OC)oc(C)c(C(=O)OC)c1=O (centres unmarked)
Key: Criterion met

Exercise: Please give the result for C=C1CCC2C(C)(CCC=C(C)C)C(O)CCC2(C)C1Cc1c(OC)oc(CO)c(C)c1=O (centres unmarked) too.
Key: Criterion met

* * *

biological target: Aβ42 (Homo sapiens, UniProt P05067); assay: Th-T (thioflavin-T) assay of Aβ42 aggregation; assay type: biochemical; details: Supplementary Fig. 47 source data; measurement M55 of time course
Task for the reader: assign each of the following compounds its reported Th-T fluorescence, mean of three wells.
The answer should be a number; do not append a unit.

Exercise: Given the entry C=C1CC[C@H]2[C@]3(C)C[C@H](C=C(C)C)O[C@H]3CC[C@]2(C)[C@@H]1Cc1c(OC)oc(CO)c(C)c1=O [Compound 18] , report its measured Th-T fluorescence, mean of three wells.
Key: 3.9543

Exercise: # iterate: C=C1CC[C@H]2[C@]3(C)C[C@@H](C=C(C)C)O[C@H]3CC[C@]2(C)[C@@H]1Cc1c(OC)oc(CO)c(C)c1=O [Compound 17]
Key: 3.6

Exercise: Also, C=C1CC[C@H]2[C@]3(C)C[C@H](C=C(C)C)O[C@H]3CC[C@]2(C)[C@@H]1Cc1c(OC)oc(C)c(C)c1=O [Compound 24] please.
Key: 4.1334

Exercise: Moving on to C=C1CC[C@@H]2[C@](C)(CC[C@H]3O[C@H](C=C(C)C)C[C@@]23C)[C@@H]1Cc1c(O)c(C)c(C)oc1=O [Compound 10, higginsianin A]
Key: 3.1161

Exercise: And what about the compound CC(C)=CCC/C(C)=C/CC/C(C)=C/CC/C(C)=C/Cc1c(O)c(C)c(C)oc1=O [Compound 2] ?
Key: 2.914

Exercise: Now try C=C1CCC2C(C)(CCC=C(C)C)C(=O)CCC2(C)C1Cc1c(O)c(C)c(C)oc1=O (stereo not shown) [Compound 8] .
Key: 2.205

Exercise: Now try C=C1CCC2C(C)(CC(=O)C=C(C)C)C(O)CCC2(C)C1Cc1c(OC)oc(CO)c(C)c1=O (stereo not shown) [Compound 19] .
Key: 3.592
